Measurement record for human 5-HT1A receptors (Homo sapiens); quantity recorded: log10 of Ki.
Property Label: log10 of Ki (log10 of the value in nM)

Compound	log10 of Ki
Cc1ccc2c3c(ccc2n1)OCC(CNCCCc1cn(C)c2ccc(F)cc12)O3 (centres unmarked) [Example 12]	0.19
Cc1ccc2c3c(ccc2n1)OCC(CNC(C)CCc1c[nH]c2ccc(F)cc12)O3 (single isomer, unassigned; isomer b) [Example 11 Isomer B]	0.67
Cc1ccc2c3c(ccc2n1)OCC(CNCCCCc1c[nH]c2ccc(F)cc12)O3 (centres unmarked) [Example 10]	0.25
Cc1ccc2c3c(ccc2n1)OCC(CNCCCc1c[nH]c2c(F)cc(F)cc12)O3 (centres unmarked) [Example 13]	-0.49
Cc1ccc2c3c(ccc2n1)OC[C@H](CNCCc1c[nH]c2ccc(Cl)cc12)O3 [Example 2]	1.30
Cc1ccc2c3c(ccc2n1)OCC(CN(C)CCCCc1cn(C)c2ccc(F)cc12)O3 (centres unmarked) [Example 44]	1.00
Cc1ccc2c3c(ccc2n1)OC[C@H](CNCCCCc1csc2ccc(Cl)cc12)O3 [Example 49]	-0.14
Cc1ccc2c3c(ccc2n1)OCC(CNCCCCc1cn(C)c2ccc(F)cc12)O3 (centres unmarked) [Example 35]	-0.25
Cc1nc2ccc3c(c2o1)O[C@@H](CNCCCc1c[nH]c2ccc(C#N)cc12)CO3 [Example 30]	0.73
Cc1nc2ccc3c(c2o1)OC(CN(C)CCCc1c[nH]c2ccc(F)cc12)CO3 (centres unmarked) [Example 24]	0.65
Cc1ccc2c3c(ccc2n1)OCC(CNCCCn1ccc2ccc(F)cc21)O3 (centres unmarked) [Example 33]	1.33
